- target or system: Human PDE4B1 (Homo sapiens, UniProt Q07343, S133E/S654A/S659A/S661A)
- Construct: His6 (N); thrombin cleavage site (N); made in house; host or cells: insect cells (baculovirus, pFastBac)
- Sequence (Q07343 122-736 S133E/S654A/S659A/S661A): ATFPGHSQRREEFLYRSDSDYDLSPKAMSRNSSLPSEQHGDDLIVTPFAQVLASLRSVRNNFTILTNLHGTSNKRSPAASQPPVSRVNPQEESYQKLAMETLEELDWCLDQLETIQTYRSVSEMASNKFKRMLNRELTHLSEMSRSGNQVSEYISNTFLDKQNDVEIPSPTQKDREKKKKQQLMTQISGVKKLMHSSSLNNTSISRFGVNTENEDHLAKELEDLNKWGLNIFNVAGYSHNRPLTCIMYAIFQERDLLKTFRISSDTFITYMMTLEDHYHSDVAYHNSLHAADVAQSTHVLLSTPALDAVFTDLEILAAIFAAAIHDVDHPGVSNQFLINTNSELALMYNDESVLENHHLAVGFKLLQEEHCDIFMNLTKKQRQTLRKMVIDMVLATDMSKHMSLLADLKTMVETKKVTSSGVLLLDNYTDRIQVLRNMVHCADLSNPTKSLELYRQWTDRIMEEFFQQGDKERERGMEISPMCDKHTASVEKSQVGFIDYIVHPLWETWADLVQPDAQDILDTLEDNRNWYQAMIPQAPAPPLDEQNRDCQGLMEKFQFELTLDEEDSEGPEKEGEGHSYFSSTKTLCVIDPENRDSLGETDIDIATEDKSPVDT
- protocol notes: PDE4B1 Scintillation Proximity Assay (SPA), inhibition of enzyme activity
- Format: biochemical
- protocol conditions: geometric mean of 2-7 determinations unless otherwise indicated (b: ≥8 determinations; c: single determination); 1 μM cAMP, 30 min at 25° C.; read-out: Human PDE4B FL; IC50
pIC50: −log10 of the molar value. Counter-ions that a name gives are not always drawn.
quantity name: pIC50

Consider the following illustrative entries.
O=C(c1nn2cc(F)cnc2c1-c1ccc(Cl)c(F)c1)N1CCC1 [Example 66] : 8.15
O=C(NC1CC1)c1nn2cccnc2c1-c1ccc(Cl)cc1F [Example 14] : 6.75

(1) O=C(c1nn2cccnc2c1-c1cccc(Cl)c1)N1CCC1 [Example 48]
(2) CN(C(=O)c1nn2cccnc2c1-c1ccc(Cl)cc1)C1CC1 [Example 35, hydrochloride salt]
Input pair: 1 , 2 . Output: entry with lower pIC50. # respond with the chosen item's label
2

* * *

- target or system: Human PDE4C1 (Homo sapiens, UniProt Q08493)
- Sequence (Q08493 2-712): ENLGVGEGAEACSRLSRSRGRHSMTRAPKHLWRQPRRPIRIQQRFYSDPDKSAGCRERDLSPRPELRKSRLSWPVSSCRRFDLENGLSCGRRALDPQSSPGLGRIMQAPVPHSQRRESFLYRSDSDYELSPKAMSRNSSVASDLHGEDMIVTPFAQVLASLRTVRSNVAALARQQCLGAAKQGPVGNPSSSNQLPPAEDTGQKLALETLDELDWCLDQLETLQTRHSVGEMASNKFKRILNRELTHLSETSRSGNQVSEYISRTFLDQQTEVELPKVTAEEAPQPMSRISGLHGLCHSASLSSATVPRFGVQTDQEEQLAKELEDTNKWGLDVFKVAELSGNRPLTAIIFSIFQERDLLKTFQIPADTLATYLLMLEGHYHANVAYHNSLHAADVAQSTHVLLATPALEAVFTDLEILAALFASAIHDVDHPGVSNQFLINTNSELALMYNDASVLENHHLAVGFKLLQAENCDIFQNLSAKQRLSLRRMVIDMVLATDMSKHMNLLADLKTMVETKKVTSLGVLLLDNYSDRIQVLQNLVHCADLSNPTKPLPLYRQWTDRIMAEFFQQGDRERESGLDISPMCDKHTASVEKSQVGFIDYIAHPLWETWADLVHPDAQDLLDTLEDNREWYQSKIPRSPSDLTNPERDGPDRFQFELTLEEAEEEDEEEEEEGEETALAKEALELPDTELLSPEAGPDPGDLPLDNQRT
Counter-ions that a name gives are not always drawn.
quantity name: IC50 (µM)

O=C(c1nn2cccnc2c1-c1ccc(Cl)cc1)N1CCC1 : 0.0842
O=C(c1nn2cccnc2c1-c1cc(F)c(Cl)cc1F)N1CCC1 : 0.0296
CCCNC(=O)c1nn2cccnc2c1-c1ccc(Cl)cc1 : 0.0606

(1) O=C(NC1(C(F)(F)F)CC1)c1nn2cccnc2c1-c1ccc(Cl)cc1 [Example 36, hydrochloride salt]
(2) O=C(NC1CC1)c1nn2cccnc2c1-c1ccc2ncoc2c1
(3) Cc1cc(Cl)c(F)cc1-c1c(C(=O)NC2CCC2)nn2cccnc12
(4) Cc1cc(Cl)c(F)cc1-c1c(C(=O)NC2CC2)nn2cc(F)cnc12
List these items ordered by IC50, big to small. When ranking, write the labels in the order the request describes.
1, 2, 3, 4
(1: 0.452 µM, 2: 0.178 µM, 3: 0.044 µM, 4: 0.00447 µM)

(1) N#Cc1ccc(-c2c(C(=O)N3CCC3)nn3cc(F)cnc23)cc1F
(2) CCNC(=O)c1nn2cccnc2c1-c1ccnc(OC(F)F)c1
Lab note: check whether 1 or 2 shows the higher recorded IC50. Output the label that corresponds to your choice.
2

* * *

- target or system: Human PDE4A3 (Homo sapiens)
- Sequence (P27815 2-825 isoform P27815-6): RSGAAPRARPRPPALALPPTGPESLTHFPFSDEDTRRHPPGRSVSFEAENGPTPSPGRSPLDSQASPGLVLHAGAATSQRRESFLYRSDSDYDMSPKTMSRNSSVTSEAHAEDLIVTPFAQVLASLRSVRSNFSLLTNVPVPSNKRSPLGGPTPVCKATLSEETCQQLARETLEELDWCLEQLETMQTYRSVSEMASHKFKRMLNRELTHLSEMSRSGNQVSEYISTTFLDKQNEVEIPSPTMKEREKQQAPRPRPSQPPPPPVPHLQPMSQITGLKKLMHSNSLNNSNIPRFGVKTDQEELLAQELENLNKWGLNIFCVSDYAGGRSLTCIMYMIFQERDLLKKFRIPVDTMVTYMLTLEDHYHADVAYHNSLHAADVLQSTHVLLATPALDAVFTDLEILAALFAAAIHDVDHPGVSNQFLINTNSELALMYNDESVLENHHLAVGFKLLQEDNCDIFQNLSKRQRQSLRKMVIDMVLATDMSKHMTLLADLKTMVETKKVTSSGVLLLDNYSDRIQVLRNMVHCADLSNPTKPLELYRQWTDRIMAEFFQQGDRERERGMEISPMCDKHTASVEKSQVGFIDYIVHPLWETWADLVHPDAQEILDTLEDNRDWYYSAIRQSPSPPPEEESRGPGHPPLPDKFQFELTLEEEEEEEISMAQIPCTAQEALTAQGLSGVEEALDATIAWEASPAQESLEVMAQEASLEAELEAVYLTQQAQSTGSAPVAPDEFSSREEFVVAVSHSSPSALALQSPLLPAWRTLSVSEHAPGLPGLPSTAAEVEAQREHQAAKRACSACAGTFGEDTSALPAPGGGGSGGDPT
pIC50: −log10 of the molar value. Structures can show the parent of a compound that is named as a salt.
quantity name: pIC50

Below, 5 compounds whose answers are already recorded.
O=C(NC1CC1)c1nn2cccnc2c1-c1cc(F)c(Cl)c(F)c1 [Example 33, hydrochloride salt] : 7.03
O=C(c1nn2cc(F)cnc2c1-c1ccc(Cl)cc1)N1CCC1 [Example 9, Formate Salt] : 7.78
CN(C(=O)c1nn2cccnc2c1-c1ccc(Cl)cc1)C1CC1 [Example 35, hydrochloride salt] : 5.95
O=C(NC1CC1)c1nn2cccnc2c1-c1ccc(Cl)c(F)c1 [Example 5] : 8.48
O=C(NC1CC1)c1nn2cc(F)cnc2c1-c1cc(F)c(Cl)c(F)c1 [Example 57] : 9.34

(1) Cc1cc(C#N)c(F)cc1-c1c(C(=O)NC2CCC2)nn2cccnc12 [Example 22]
(2) O=C(NC1CC1)c1nn2cccnc2c1-c1ccc(Cl)cc1F [Example 14]
pIC50 comparison. Which is larger, 1 or 2 ? Reply briefly: the label of your chosen item.
2

(1) N#Cc1ccc(-c2c(C(=O)NC3CC3)nn3cccnc23)cn1 [Example 44]
(2) CC1(NC(=O)c2nn3cccnc3c2-c2ccc(Cl)cc2)CC1 [Example 11]
// compare measured pIC50 between 1 and 2 ; output the lower one Returns: label corresponding to the selected item.
1
(1: 6.72, 2: 7.09)

(I) CCNC(=O)c1nn2cccnc2c1-c1ccc(Cl)cc1 [Example 52]
(II) Cc1cc(Cl)ccc1-c1c(C(=O)N2CCC2)nn2cccnc12 [Example 21]
Please tell me which of the two, I or II , has the higher reported pIC50 value. // return label of chosen record
II
(II: 7.78, I: 6.85)

(A) O=C(NC1CC1)c1nn2cccnc2c1-c1ccc2ncoc2c1 [Example 43]
(B) O=C(NC1CC1)c1nn2cc(F)cnc2c1-c1ccc(Cl)c(F)c1F [Example 58]
Of the two listed items, which has the higher pIC50? First: A Second: B Output the label that corresponds to your choice.
B
(B: 8.39, A: 6.84)

(1) O=C(NC1(C(F)(F)F)CC1)c1nn2cccnc2c1-c1ccc(Cl)cc1 [Example 36, hydrochloride salt]
(2) CC(C)NC(=O)c1nn2cccnc2c1-c1ccc(Cl)cc1 [Example 26]
(3) O=C(NC1CC1)c1nn2cccnc2c1-c1cccc(Cl)c1 [Example 31, hydrochloride salt]
Ascending by pIC50, please: list the compounds accordingly. Give the labels in the order specified.
2, 1, 3

(I) O=C(NC1CC1)c1nn2cc(F)cnc2c1-c1ccc2ocnc2c1 [Example 65]
(II) Cc1cc(Cl)c(F)cc1-c1c(C(=O)NC(C)C)nn2cccnc12 [Example 54]
(III) Cc1cc(C#N)c(F)cc1-c1c(C(=O)NC2CC2)nn2cc(F)cnc12 [Example 67]
(IV) O=C(c1nn2cccnc2c1-c1ccc(Cl)c(F)c1)N1CCC1 [Example 12]
(V) CCCC(=O)Nc1nn2cccnc2c1-c1ccc(Cl)c(F)c1 [Example 4]
Hi! Can you put these in order of pIC50, lowest number first? Ranked list of labels, please, in the requested order.
V, I, IV, II, III
(V: 6.26, I: 7.24, IV: 7.66, II: 7.89, III: 8.46)

(a) CCNC(=O)c1nn2cccnc2c1-c1cc(F)c(Cl)cc1F [Example 19]
(b) N#Cc1ccc(-c2c(C(=O)N3CCC3)nn3cc(F)cnc23)cc1F [Example 68]
Sorting ascending by pIC50, which comes first: a or b ? # reply format: chosen label
a
(a: 7.95, b: 8.48)

(I) O=C(N[C@@H]1C[C@@H]1F)c1nn2cccnc2c1-c1ccc(Cl)c(F)c1 [Example 28]
(II) O=C(NC1CC1)c1nn2cccnc2c1-c1ccc2ocnc2c1 [Example 60]
Please let me know which one, I or II , has a lower measured pIC50 value. Please indicate the selected item by its label.
II
(II: 7.33, I: 7.84)
